The measurements presented in this section are drawn from patent US6479666B2.

- subject_of_test: Ramos cells bearing cell-surface VLA-4 (α4β1 integrin) binding to VCAM-1 (Homo sapiens, UniProt P05556+P13612)
- Construct: Ramos cells bearing cell-surface VLA-4; endogenous in cells; VCAM-1 made in CHO cells
- Sequence (P13612 34-1032): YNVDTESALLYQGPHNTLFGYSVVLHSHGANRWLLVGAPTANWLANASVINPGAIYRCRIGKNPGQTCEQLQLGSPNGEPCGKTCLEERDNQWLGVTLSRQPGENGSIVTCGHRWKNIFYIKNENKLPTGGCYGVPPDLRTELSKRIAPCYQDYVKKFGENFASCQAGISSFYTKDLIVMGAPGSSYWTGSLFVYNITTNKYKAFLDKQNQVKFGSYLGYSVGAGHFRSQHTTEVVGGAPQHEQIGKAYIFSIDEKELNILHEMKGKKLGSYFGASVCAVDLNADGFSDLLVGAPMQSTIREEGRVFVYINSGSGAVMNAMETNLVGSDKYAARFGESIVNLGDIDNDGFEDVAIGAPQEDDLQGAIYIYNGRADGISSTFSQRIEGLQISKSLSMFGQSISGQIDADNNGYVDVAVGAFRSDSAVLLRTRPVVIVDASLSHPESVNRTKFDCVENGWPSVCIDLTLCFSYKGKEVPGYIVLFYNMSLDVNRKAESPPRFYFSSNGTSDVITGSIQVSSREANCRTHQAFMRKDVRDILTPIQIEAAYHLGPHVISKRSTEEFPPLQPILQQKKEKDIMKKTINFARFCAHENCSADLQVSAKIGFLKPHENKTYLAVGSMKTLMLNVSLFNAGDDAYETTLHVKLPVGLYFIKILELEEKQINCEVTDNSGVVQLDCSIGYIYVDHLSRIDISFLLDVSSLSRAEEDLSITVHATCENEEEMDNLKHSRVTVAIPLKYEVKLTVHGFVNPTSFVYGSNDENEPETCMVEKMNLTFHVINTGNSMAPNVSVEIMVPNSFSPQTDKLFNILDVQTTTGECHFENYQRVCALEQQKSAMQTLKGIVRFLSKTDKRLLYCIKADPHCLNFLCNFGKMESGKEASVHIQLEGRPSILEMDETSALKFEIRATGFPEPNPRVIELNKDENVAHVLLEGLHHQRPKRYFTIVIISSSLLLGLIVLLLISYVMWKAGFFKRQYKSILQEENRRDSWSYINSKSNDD
- Sequence (P05556 21-798): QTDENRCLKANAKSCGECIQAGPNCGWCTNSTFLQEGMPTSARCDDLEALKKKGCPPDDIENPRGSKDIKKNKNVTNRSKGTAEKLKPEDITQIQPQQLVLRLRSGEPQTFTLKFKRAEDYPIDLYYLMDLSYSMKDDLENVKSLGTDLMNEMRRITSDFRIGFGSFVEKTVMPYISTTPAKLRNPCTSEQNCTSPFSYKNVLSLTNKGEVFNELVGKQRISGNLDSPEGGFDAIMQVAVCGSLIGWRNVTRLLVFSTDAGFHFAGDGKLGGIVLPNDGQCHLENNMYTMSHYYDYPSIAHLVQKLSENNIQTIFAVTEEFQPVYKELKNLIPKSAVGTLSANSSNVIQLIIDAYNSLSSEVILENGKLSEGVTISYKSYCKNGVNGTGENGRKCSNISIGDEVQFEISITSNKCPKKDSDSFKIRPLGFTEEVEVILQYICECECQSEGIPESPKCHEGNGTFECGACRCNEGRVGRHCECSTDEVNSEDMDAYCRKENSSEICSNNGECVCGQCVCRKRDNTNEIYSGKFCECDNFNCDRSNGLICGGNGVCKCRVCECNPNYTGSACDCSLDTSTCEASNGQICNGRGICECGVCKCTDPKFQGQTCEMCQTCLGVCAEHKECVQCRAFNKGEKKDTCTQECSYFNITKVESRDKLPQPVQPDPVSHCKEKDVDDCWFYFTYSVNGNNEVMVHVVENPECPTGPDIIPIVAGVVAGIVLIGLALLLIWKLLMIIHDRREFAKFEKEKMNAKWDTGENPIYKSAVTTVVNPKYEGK
- measurement_protocol: Ramos (VLA-4) / VCAM-1 Cell-Based Screening Assay (cell adhesion)
- condition_details: Calcein-AM labelled Ramos cells, VCAM-1 coated plates
measured_parameter: IC50 (nM)

>>> recorded_number("Cc1cc(C(F)(F)F)c(C(=O)Nc2ccc(C[C@H](NC(=S)C3(CCCCS(C)(=O)=O)CCC3)C(=O)O)cc2)c(C)n1")
5.5

(P) CS(=O)(=O)CCCC1(C(=S)N[C@@H](Cc2ccc(NC(=O)c3c(Cl)cccc3Cl)cc2)C(=O)O)CCC1
(Q) CCc1cccc(C)c1C(=S)N[C@@H](Cc1ccc(N2C(=O)[C@@H](Cc3cccnc3)N(C(C)=O)[C@@H]2c2ccccc2)cc1)C(=O)O
-- ask Hi, I'm comparing P with Q and wondering which one has the bigger number for IC50. Any idea? Respond using the label that marks the chosen record.
-- reply P
(P: 341 nM, Q: 220 nM)
